- testDetails: Primary qHTS to identify inhibitors of SARS-CoV-2 cell entry (AID 1645846); also: nearly all actives have a fitted effect of over 45% in size
- conditionDetails: SARS-CoV-2 pseudovirus cell entry assay, luminescence
Results filed as inconclusive are left out. Active and inactive are the calls of the source. Calls follow the shape of the full dose curve.
Would you mind answering with one of these outcomes? active, inactive

Known results for compounds:
# chemicalStructure, group
measured = [
    ("O=C(/C=C\\n1cnc(-c2cc(C(F)(F)F)cc(C(F)(F)F)c2)n1)NNc1ccccn1", "active"),
    ("CCCC(=O)O[C@]1(C(=O)COC(=O)CC)[C@@H](C)C[C@H]2[C@@H]3CCC4=CC(=O)C=C[C@]4(C)[C@@]3(F)[C@@H](O)C[C@@]21C", "inactive"),
    ("NC(N)=NCCC[C@@H](N)C(=O)N[C@@H](CCCN=C(N)N)C(=O)N1CCC[C@H]1C(=O)N1C[C@H](O)C[C@H]1C(=O)NCC(=O)N[C@@H](Cc1cccs1)C(=O)N[C@@H](CO)C(=O)N1Cc2ccccc2C[C@@H]1C(=O)N1[C@H](C(=O)N[C@@H](CCCN=C(N)N)C(=O)O)C[C@@H]2CCCC[C@@H]21", "inactive"),
]

Could you check what this test reported for `COc1cc2nccc(Oc3ccc(NC(=O)c4cn(C(C)C)c(=O)n(-c5ccc(F)cc5)c4=O)cc3F)c2cc1OC` ?
inactive

---

- testDetails: U-118MG Cancer Cell Toxicity qHTS against the NCATS CANVASS Library (AID 1347351)
- conditionDetails: U-118MG viability, CellTiter-Glo luminescence, 72 h; series mostly up to 38.3 µM
Results filed as inconclusive are left out. Active and inactive are the calls of the source. Calls come from the whole dose curve; as a rule, active = well fitted cell-killing curve with a large enough effect; inconclusive = small, poorly fitted or top-dose-only effect; inactive = flat fitted curve, though single readings scatter.
Would you mind answering with one of these outcomes? YES (active), NO (inactive)

# molecule, group
measured = [
    ("CO[C@H]1C[C@H](O[C@H]2[C@@H](O)C[C@H](O[C@H]3CC[C@]4(C=O)[C@H]5CC[C@]6(C)C(C7=CC(=O)OC7)CC[C@]6(O)[C@@H]5CC[C@]4(O)C3)O[C@@H]2C)O[C@H](C)[C@H]1O[C@H]1C[C@@H](OC)[C@@H](O[C@@H]2O[C@H](CO)[C@@H](O)[C@H](O)[C@H]2O)[C@@H](C)O1 (stereo partly specified)", "YES"),
    ("C[C@]12CCC3[C@@H](CC[C@@H]4C[C@@H](O)CC[C@]34CO)[C@@]1(O)CC[C@@H]2C1=CC(=O)OC1 (stereo partly specified)", "YES"),
    ("CC[C@@H]1CN2CCC3(Nc4cccc(OC)c4C3=O)[C@@H]2C[C@@H]1/C(=C\\OC)C(=O)OC (stereo partly specified)", "NO"),
    ("C=C[C@]12C=CCN3CC[C@@]4(c5ccccc5NC(=O)[C@@H]4C1)[C@@H]32", "NO"),
    ("C/C=C1/CN2CC[C@]34C(=C(C(=O)OC)[C@H]1C[C@H]23)Nc1ccccc14", "NO"),
]

Continue with the molecule presented below.
Could you check what this test reported for `CO[C@@]12c3c(C)cc(O)c4c(=O)occ(c34)C(=O)[C@@H]1[C@]13COC(=O)c4c(O)cc(C)c(c41)C(=O)[C@H]2[C@@H]3OC(C)=O` ?
NO

---

- testDetails: qHTS for differential inhibitors of proliferation of Plasmodium falciparum line 7G8 (AID 1815);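 also: parasite growth measured after three days of incubation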
- conditionDetails: Plasmodium falciparum 7G8 proliferation inhibition; series mostly up to 28.7 µM
Inconclusive results are not listed. Calls of active or inactive are those of the source. Calls come from the whole dose curve; as a rule, active = well fitted curve in the direction sought with a large enough effect; inconclusive = small, poorly fitted or top-dose-only effect, or another doubt; inactive = no such curve, though single readings can be large or run the other way.
Would you mind answering with one of these outcomes? T = active, F = inactive

Known results for compounds:
# compound, group
records = [
    ("CN1CCC23CCCC[C@H]2C1Cc1ccc(O)cc13 (stereo not given in full)", "T"),
    ("C[C@]12C=CC(=O)C=C1CCC1C2=CC[C@]2(C)[C@@H](C(=O)CN3CCN(c4cc(N5CCCC5)nc(N5CCCC5)n4)CC3)CC[C@@H]12 (stereo not given in full)", "T"),
    ("C[C@]12CC[C@H](OS(=O)(=O)O)CC1=CCC1C2CC[C@]2(C)C(=O)CC[C@@H]12 (stereo not given in full)", "F"),
    ("NC(Cn1ccc(=O)[nH]c1=O)C(=O)O (stereo not given)", "F"),
]

Continue with the compound presented below.
Could you check what this test reported for `C[C@H]1OC[C@@H](C[N+](C)(C)C)O1` ?
F
